B1: Hairpin Ribozyme (parent)
chain: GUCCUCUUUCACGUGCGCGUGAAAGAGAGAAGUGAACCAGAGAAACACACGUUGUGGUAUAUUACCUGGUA

# Variants of: B1
# run description: self-cleavage, relative activity (ratio to wild type); higher = more cleavage; co-transcriptional
Mark 0 for self-cleavage values under 0.3, and 1 for everything at or above.

var="C66A U67C" group_label=0
var="G51C G54U" group_label=1
var="C10G A36U" group_label=1
var="G51A G68C" group_label=1
var="G13U A41G" group_label=1

Now consider the entry below.
Ask | Determine whether this variant has self-cleavage no lower than 0.3: C10A C66U
Reply | 1

src = the RNAGym collection of RNA variant scans (doi:10.7554/elife.80360)
